Measured Target: T1, CD3 epsilon homodimer protein (UniProt P07766 23-126)
T1 construct: also called CD3 (CD3 epsilon)
T1 sequence (P07766 23-126): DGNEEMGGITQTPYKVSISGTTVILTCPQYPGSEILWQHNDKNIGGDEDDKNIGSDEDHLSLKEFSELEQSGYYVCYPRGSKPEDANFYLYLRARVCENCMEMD
Assay Explanation: SPR, antibody over immobilised CD3e homodimer;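 note: SPR at 25 °C with CD3 epsilon homodimer amine-coupled to a CM4 sensor chip and antibody flowed over as analyte in HBS-EP+ running buffer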
Property Name: KD ratio to GLS3000

For orientation, consider the following solved cases.
Binder	Result
CE115HA000/GLS3000 V51E (antibody, IgG1, name in Kabat numbering, V domains shown, one-arm IgG1) VH: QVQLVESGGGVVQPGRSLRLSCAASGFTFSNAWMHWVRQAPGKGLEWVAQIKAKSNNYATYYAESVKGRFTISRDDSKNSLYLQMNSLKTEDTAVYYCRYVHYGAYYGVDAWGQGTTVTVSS VL: DIVMTQSPLSLPVTPGEPASISCRSSQSLVHSNRNTYLHWYQQKPGQAPRLLIYKESNRFSGVPDRFSGSGSGTDFTLKISRVEAEDVGVYYCGQGTQVPYTFGQGTKLEIK	0.88
CE115HA000/GLS3000 N28E (antibody, IgG1, name in Kabat numbering, V domains shown, one-arm IgG1) VH: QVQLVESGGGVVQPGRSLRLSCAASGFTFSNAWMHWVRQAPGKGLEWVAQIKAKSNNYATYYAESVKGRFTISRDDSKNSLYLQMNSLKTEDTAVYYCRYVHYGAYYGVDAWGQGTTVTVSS VL: DIVMTQSPLSLPVTPGEPASISCRSSQSLVHSERNTYLHWYQQKPGQAPRLLIYKVSNRFSGVPDRFSGSGSGTDFTLKISRVEAEDVGVYYCGQGTQVPYTFGQGTKLEIK	5.47
CE115HA000/GLS3000 R29P (antibody, IgG1, name in Kabat numbering, V domains shown, one-arm IgG1) VH: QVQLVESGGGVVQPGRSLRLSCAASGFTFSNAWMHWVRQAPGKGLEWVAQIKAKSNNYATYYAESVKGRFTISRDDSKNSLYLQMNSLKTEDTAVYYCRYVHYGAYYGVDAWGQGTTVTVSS VL: DIVMTQSPLSLPVTPGEPASISCRSSQSLVHSNPNTYLHWYQQKPGQAPRLLIYKVSNRFSGVPDRFSGSGSGTDFTLKISRVEAEDVGVYYCGQGTQVPYTFGQGTKLEIK	14

Challenge: Which measured KD ratio to GLS3000 value corresponds to CE115HA000/GLS3000 G89H (antibody, IgG1, name in Kabat numbering, V domains shown, one-arm IgG1) VH: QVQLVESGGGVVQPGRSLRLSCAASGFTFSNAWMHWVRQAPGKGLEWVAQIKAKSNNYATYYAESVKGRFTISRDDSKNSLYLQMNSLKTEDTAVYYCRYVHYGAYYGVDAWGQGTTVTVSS VL: DIVMTQSPLSLPVTPGEPASISCRSSQSLVHSNRNTYLHWYQQKPGQAPRLLIYKVSNRFSGVPDRFSGSGSGTDFTLKISRVEAEDVGVYYCHQGTQVPYTFGQGTKLEIK ?
Response given: 1.44

Challenge: Tell me the measured KD ratio to GLS3000 of CE115HA000/GLS3000 N53A (antibody, IgG1, name in Kabat numbering, V domains shown, one-arm IgG1) VH: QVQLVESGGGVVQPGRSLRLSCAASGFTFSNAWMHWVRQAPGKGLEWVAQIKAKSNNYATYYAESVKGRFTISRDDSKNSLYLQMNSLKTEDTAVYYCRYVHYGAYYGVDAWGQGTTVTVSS VL: DIVMTQSPLSLPVTPGEPASISCRSSQSLVHSNRNTYLHWYQQKPGQAPRLLIYKVSARFSGVPDRFSGSGSGTDFTLKISRVEAEDVGVYYCGQGTQVPYTFGQGTKLEIK , please.
Response given: 0.82
